Experiment: PFAS levels in serum samples of airport employees (LC/MS/MS)
Conditions: 3rd sampling (November, 2018), count 17
Protocol: All 26 employees at the airport were invited for a blood sampling between 11 and 14 September 2018 (i.e., within 11 to 14 d after the termination of contaminated drinking-water exposure). Information on age, home address, employment history, working tasks, and sick leave and vacation days in August and September were collected by questionnaire. […] Aliquots of 4μL of the sample were analyzed using LC/MS/MS. […]
Serum PFAS level, Median by entry:

compound	Serum PFAS level, Median
O=S(=O)(O)C(F)(F)C(F)(F)C(F)(F)C(F)(F)C(F)(F)C(F)(F)C(F)(F)C(F)(F)F	11
O=C(O)C(F)(F)C(F)(F)C(F)(F)C(F)(F)C(F)(F)F	0.34
O=C(O)C(F)(F)C(F)(F)C(F)(F)C(F)(F)C(F)(F)C(F)(F)C(F)(F)F	11
O=S(=O)(O)C(F)(F)C(F)(F)C(F)(F)C(F)(F)C(F)(F)C(F)(F)F	119
O=S(=O)(O)C(F)(F)C(F)(F)C(F)(F)C(F)(F)F	0.09
O=C(O)C(F)(F)C(F)(F)C(F)(F)C(F)(F)C(F)(F)C(F)(F)F	0.27
O=S(=O)(O)C(F)(F)C(F)(F)C(F)(F)C(F)(F)C(F)(F)C(F)(F)C(F)(F)F	1.4
O=S(=O)(O)C(F)(F)C(F)(F)C(F)(F)C(F)(F)C(F)(F)F	6.3
O=S(=O)(O)C(F)(C(F)(F)F)C(F)(F)C(F)(F)C(F)(F)C(F)(F)C(F)(F)C(F)(F)F (stereo not drawn) [1m-PFOS, perfluoro-1-methylheptanesulfonate]	0.88

---

Assay: PFAS levels in serum samples of airport employees (LC/MS/MS)
Settings: 3rd sampling (November, 2018), count 17
Experimental: All 26 employees at the airport were invited for a blood sampling between 11 and 14 September 2018 (i.e., within 11 to 14 d after the termination of contaminated drinking-water exposure). Information on age, home address, employment history, working tasks, and sick leave and vacation days in August and September were collected by questionnaire. […] Aliquots of 4μL of the sample were analyzed using LC/MS/MS. […]
metric name: Serum PFAS level, Max

compound	assay value
O=C(O)C(F)(F)C(F)(F)C(F)(F)C(F)(F)C(F)(F)F	1.4
O=S(=O)(O)C(F)(F)C(F)(F)C(F)(F)C(F)(F)C(F)(F)C(F)(F)F	392
O=S(=O)(O)C(F)(F)C(F)(F)C(F)(F)C(F)(F)F	0.65
O=C(O)C(F)(F)C(F)(F)C(F)(F)C(F)(F)C(F)(F)C(F)(F)C(F)(F)F	28
O=S(=O)(O)C(F)(C(F)(F)F)C(F)(F)C(F)(F)C(F)(F)C(F)(F)C(F)(F)C(F)(F)F (stereo not drawn) [1m-PFOS, perfluoro-1-methylheptanesulfonate]	4.4
O=S(=O)(O)C(F)(F)C(F)(F)C(F)(F)C(F)(F)C(F)(F)C(F)(F)C(F)(F)C(F)(F)F	23
O=S(=O)(O)C(F)(F)C(F)(F)C(F)(F)C(F)(F)C(F)(F)F	14
O=S(=O)(O)C(F)(F)C(F)(F)C(F)(F)C(F)(F)C(F)(F)C(F)(F)C(F)(F)F	6.3
O=C(O)C(F)(F)C(F)(F)C(F)(F)C(F)(F)C(F)(F)C(F)(F)F	2.0

---

Serum PFAS level, Min by entry:
Assay: PFAS levels in serum samples of airport employees (LC/MS/MS)
Details: 4th sampling (December 2018), count 16
metric name: Serum PFAS level, Min

> print(dat)
                               given.smiles            metric.name  assay.value
1  O=C(O)C(F)(F)C(F)(F)C(F)(F)C(F)(F)C(F)(F)F  Serum PFAS level, Min         0.08
2  O=S(=O)(O)C(F)(F)C(F)(F)C(F)(F)C(F)(F)C(F)(F)C(F)(F)C(F)(F)F  Serum PFAS level, Min         0.35
3  O=C(O)C(F)(F)C(F)(F)C(F)(F)C(F)(F)C(F)(F)C(F)(F)F  Serum PFAS level, Min         0.05

---

Serum PFAS level, Min by entry:
Assay: PFAS levels in serum samples of airport employees (LC/MS/MS)
Conditions: 5th sampling (January 2019), count 16
metric name: Serum PFAS level, Min

> print(dat)
                               given.smiles  assay.value
1  O=S(=O)(O)C(F)(F)C(F)(F)C(F)(F)C(F)(F)C(F)(F)C(F)(F)C(F)(F)C(F)(F)F          4.5
2  O=C(O)C(F)(F)C(F)(F)C(F)(F)C(F)(F)C(F)(F)F         0.11
3  O=S(=O)(O)C(F)(F)C(F)(F)C(F)(F)C(F)(F)C(F)(F)C(F)(F)F           42
4  O=S(=O)(O)C(F)(F)C(F)(F)C(F)(F)C(F)(F)C(F)(F)C(F)(F)C(F)(F)F         0.45
5  O=C(O)C(F)(F)C(F)(F)C(F)(F)C(F)(F)C(F)(F)C(F)(F)C(F)(F)F          4.4
6  O=S(=O)(O)C(F)(F)C(F)(F)C(F)(F)C(F)(F)C(F)(F)F          1.9

---

Experiment: PFAS levels in serum samples of airport employees (LC/MS/MS)
Conditions: females (N=7)
Initial serum PFAS level, min by entry:
metric name: Initial serum PFAS level, min (ng/mL)

> print(dat)
                               given.smiles                    metric.name      u  assay.value
1  O=C(O)C(F)(F)C(F)(F)C(F)(F)C(F)(F)C(F)(F)F  Initial serum PFAS level, min  ng/mL         0.19
2   O=S(=O)(O)C(F)(F)C(F)(F)C(F)(F)C(F)(F)F  Initial serum PFAS level, min  ng/mL         0.06
3  O=C(O)C(F)(F)C(F)(F)C(F)(F)C(F)(F)C(F)(F)C(F)(F)F  Initial serum PFAS level, min  ng/mL         0.08
4  O=S(=O)(O)C(F)(F)C(F)(F)C(F)(F)C(F)(F)C(F)(F)C(F)(F)C(F)(F)C(F)(F)F  Initial serum PFAS level, min  ng/mL          5.5

---

Elimination rate by entry:
Test: Individual serum elimination rate and half-life (linear regression per employee)
Details: individual estimate, subject 2, 5 samples
metric name: Elimination rate (yearly)

> print(dat)
                               given.smiles  assay.value
1  O=C(O)C(F)(F)C(F)(F)C(F)(F)C(F)(F)C(F)(F)C(F)(F)C(F)(F)F          0.2
2  O=S(=O)(O)C(F)(F)C(F)(F)C(F)(F)C(F)(F)C(F)(F)C(F)(F)C(F)(F)F          0.2
3   O=S(=O)(O)C(F)(F)C(F)(F)C(F)(F)C(F)(F)F          4.0

---

Test: Individual serum elimination rate and half-life (linear regression per employee)
Conditions: individual estimate, subject 4, 5 samples
Method: Serum PFAS concentrations were log-transformed. Time was calculated as the elapsed days between supply of clean bottled water and […] blood sampling. We assumed one compartment, first-order elimination kinetics. […] Method 2: For estimation of individual k, linear regression was used to derive the slope ( β ) of the logarithm of serum concentrations vs. time for each employee. […] If β was positive (i.e., PFAS concentrations tended to increase over the five samplings), the half-life was not calculated.
Elimination rate by entry:

compound	Elimination rate, yearly
O=S(=O)(O)C(F)(F)C(F)(F)C(F)(F)C(F)(F)C(F)(F)C(F)(F)C(F)(F)F [PFHpS, perfluoroheptane sulfonic acid]	0.001
O=C(O)C(F)(F)C(F)(F)C(F)(F)C(F)(F)C(F)(F)C(F)(F)F [PFHpA, perfluoroheptanoic acid]	3.2
O=C(O)C(F)(F)C(F)(F)C(F)(F)C(F)(F)C(F)(F)C(F)(F)C(F)(F)F [PFOA, perfluorooctanoic acid]	0.3
O=S(=O)(O)C(F)(F)C(F)(F)C(F)(F)C(F)(F)C(F)(F)F [PFPeS, perfluoropentane sulfonic acid]	0.8
O=S(=O)(O)C(F)(F)C(F)(F)C(F)(F)C(F)(F)C(F)(F)C(F)(F)C(F)(F)C(F)(F)F [L-PFOS, linear perfluorooctane sulfonic acid]	−0.3
O=S(=O)(O)C(F)(C(F)(F)F)C(F)(F)C(F)(F)C(F)(F)C(F)(F)C(F)(F)C(F)(F)F (stereo not drawn) [1m-PFOS, perfluoro-1-methylheptanesulfonate]	−0.1
O=S(=O)(O)C(F)(F)C(F)(F)C(F)(F)C(F)(F)F [PFBS, perfluorobutane sulfonic acid]	3.1
O=S(=O)(O)C(F)(F)C(F)(F)C(F)(F)C(F)(F)C(F)(F)C(F)(F)F [PFHxS, perfluorohexane sulfonic acid]	0.1
O=C(O)C(F)(F)C(F)(F)C(F)(F)C(F)(F)C(F)(F)F [PFHxA, perfluorohexanoic acid]	−0.6

Just for reference, paper PMC7351026 is where these values come from.
